Values compiled from the nanobody polyreactivity screen of Harvey et al. (2022).

Assay: yeast display, Sf9 membrane polyspecificity reagent, FACS + sequencing; frameworks hold sequencing errors
PROPERTY LABEL: polyreactivity (PSR sort gate)

{"columns": ["RESIDUE STRING", "polyreactivity (PSR sort gate)"],
 "data": [
  ["QVQLVESGGGLVQAGGSLRLSCAASGSTFGLYGMGWYRQAPGKERELVAAITYSGGGTYYADSVKGRFTISRDNAKNTVYLQMNSLKPEDTAVYYCAAEYYSSITGWYYYWGQGTQVTVSS", "low polyreactivity"],
  ["QVQLVESGGGLVQAGGSLRLTCAASGRTFDYNAMGWYIQAPGKERELVAAISQSGGRTYYADSVKGRFTISRDHAKNTVYLQMNSLKPEDTAVYYCAAEAYGNRDYWGQGTQVTVSS", "low polyreactivity"],
  ["QVQLVESGGGLVQAGGSLRLSCAASGYTFHGYSMGWYRKAPGKERELVAVITQRGGSTSYADSVKGRFTISRDNAKNTVYLQMNSLKPEDTAVYYCNASAWLVVARTRYGYWGQGTQVTVSS", "low polyreactivity"],
  ["QVQLVESGGGLVQAGGSLRLSCAASGSIFGDYVMGWYRQAPGNERELVAAINRGGSTYYADSVKGRFSISRDNAKNTVYLQMNSLTAEDTAVYFCAAGYPSWYYCYPYDSWGQGTQVTVSS", "low polyreactivity"],
  ["QVQLVESGGGLVQAGGSLRLSCAASGRIFGYYALGLSRQAPGKERELVAAINSGSRTYYADSVKGRFTISRDNAKNTVYLQMNSLKPEDTAVYYCAKVGRGNNYWGQGTQVTVSS", "high polyreactivity"]
]}

For QVQLVESGGGLVQAGGSLRLSCAASGYIFGVYAMGWYRQAPGKERELVARITSGGSTNYADSVKGRFTISRDNAKNTVYLQMNSLKPEDTAVYYCAAAVGNTDREYDYWGQGTQVTVSS , what is its reported polyreactivity (PSR sort gate)?
low polyreactivity

For QVQLVESGGGLVQAGGSLRLICAASGSIFTPYVMGWYRQAPGKEREFVAAITQRGGRTYYADSVKGRFTISRDNAKNTVYLQMNSLKPEDTAVYYCAKTSVSRTYHRSAYDYWGQGTQVTVSS , what is its reported polyreactivity (PSR sort gate)?
high polyreactivity

For QVQLVDSGGGLVHAGGSLRLSCAASGSIFGANTMGWYRPAPGKERELVAGITSRARTYYADSVKGRFTISRDNANNNVYLQMNSLKPEDTAVYYCAAKYAWRRYGYWGQGTQVTVSS , what is its reported polyreactivity (PSR sort gate)?
high polyreactivity

For QVQLVESGGGLVQAGGSLRLSCASSGNTFIENAMGWYRQAPGKERELVAAIDTGGSTYYADSVKGRFTISRDNAKNTVYLQMNSLKPEDSAVYYCTAVGLYLYRYIFGYLGKIGPGYDYWGQGTQVSVSS , what is its reported polyreactivity (PSR sort gate)?
low polyreactivity

For QVQLVESGGGLVQAGGSLRLSSAASGSTFRYNAMGWYRQAPGKERELVAAITSTGDSTYYADSVKGRFTISRDNAKNTVYLQMNSLKPEDTAVYYCAARSYASPGWRYEYWGQGTQVTVSS , what is its reported polyreactivity (PSR sort gate)?
low polyreactivity

For QVQLVESGGGLVQAGGSLRLSCAASGLTFGGYAMGWYRPAPGKERELVAAISWSGGRTYYADSVKGRFTISRDNAKNTVYLQMNSLKPEDTAVYYCAARKLVVNLREDYWGQGTQVTVSS , what is its reported polyreactivity (PSR sort gate)?
high polyreactivity

For QVQLVESGGGLVQAGGSLRLSCAASGLTLYTYAMGWYRQAPGKERELVAAISKNGGRTYYADSVKGRFTISRDNANNTVYLQMNSLKPEDTAVYYCAARARVGSVTFDYWGQGTQVTVSS , what is its reported polyreactivity (PSR sort gate)?
high polyreactivity

For QVQLQESGGCVVQAGGSLRLSCAASGTISDSGLMGWYRQAPGKERELVAGISSGGITNYADSVKGRFTISRDNAKNTVYLQMNSLKPEDTAVYWGQGTQVTVSS , what is its reported polyreactivity (PSR sort gate)?
low polyreactivity
